test.method.notes: Pharmacokinetics in dogs (plasma concentration by HPLC)
Format: in vivo, dog (beagle)
condition.context: dog, plasma, po, 2 mg/kg/day, Dog 4, day 1, 7 h; 2 mg/kg/day PO
Description: Since dogs are used in toxicology studies of antiasthma compounds, this species is chosen for pharmacokinetic evaluations. […] Heparinized blood samples are obtained from each animal on the first, third and fifth day of dosage at 0.5, 1.0, 2.0, 4.0, 7.0, 12.0 and 24.0 hours after the dose. The samples are centrifuged immediately to obtain plasma which is frozen until analyzed. […]
measurement.type: concentration at 7 h (ng/mL)

[
  {
    "compound.smiles": "c1cc(Nc2nccc(-c3cccs3)n2)cc(OCCn2ccnc2)c1",
    "output.unit": "ng/mL",
    "measurement": 40
  }
]

---

test.method.notes: Pharmacokinetics in dogs (plasma concentration by HPLC)
Format: in vivo, dog (beagle)
condition.context: dog, plasma, po, 2 mg/kg/day, Dog 2, day 3; 2 mg/kg/day PO
// reported Cmax per item
measurement.type: Cmax (ng/mL)

[
  {
    "molecule": "c1cc(Nc2nccc(-c3cccs3)n2)cc(OCCn2ccnc2)c1",
    "output.unit": "ng/mL",
    "measurement": 205
  },
  {
    "molecule": "Cc1cc(Nc2nccc(-c3ccncc3)n2)ccc1N.Cl.Cl [Compound 2, reference compound]",
    "output.unit": "ng/mL",
    "measurement": 260
  }
]

---

test.method.notes: Pharmacokinetics in dogs (plasma concentration by HPLC)
Format: in vivo, dog (beagle)
condition.context: dog, plasma, po, 2 mg/kg/day, Dog 4, day 3; 2 mg/kg/day PO
measurement.type: half-life (h)

[
  {
    "compound.smiles": "c1cc(Nc2nccc(-c3cccs3)n2)cc(OCCn2ccnc2)c1",
    "measurement": 1.61
  }
]

---

test.method.notes: Pharmacokinetics in dogs (plasma concentration by HPLC)
Format: in vivo, dog (beagle)
condition.context: dog, plasma, po, 2 mg/kg/day, Dog 4, day 1, 0.5 h; 2 mg/kg/day PO
Parameter: concentration at 0.5 h. Scope: all listed entries.
measurement.type: concentration at 0.5 h (ng/mL)

[
  {
    "compound": "Cc1cc(Nc2nccc(-c3ccncc3)n2)ccc1N.Cl.Cl [Compound 2, reference compound]",
    "measurement.type": "concentration at 0.5 h",
    "measurement": 482
  },
  {
    "compound": "c1cc(Nc2nccc(-c3cccs3)n2)cc(OCCn2ccnc2)c1",
    "measurement.type": "concentration at 0.5 h",
    "measurement": 173
  }
]

---

test.method.notes: Pharmacokinetics in dogs (plasma concentration by HPLC)
Assay type: in vivo, dog (beagle)
condition.context: dog, plasma, po, 2 mg/kg/day, Dog 3, day 5; 2 mg/kg/day PO

[
  {
    "compound": "c1cc(Nc2nccc(-c3cccs3)n2)cc(OCCn2ccnc2)c1",
    "Cmax, ng/mL": 272
  },
  {
    "compound": "Cc1cc(Nc2nccc(-c3ccncc3)n2)ccc1N.Cl.Cl [Compound 2, reference compound]",
    "Cmax, ng/mL": 289
  }
]

---

test.method.notes: Pharmacokinetics in dogs (plasma concentration by HPLC)
Type: in vivo, dog (beagle)
condition.context: dog, plasma, po, 2 mg/kg/day, Dog 4, day 3; 2 mg/kg/day PO; read-out: AUCO- (to infinite time)

[
  {
    "compound": "c1cc(Nc2nccc(-c3cccs3)n2)cc(OCCn2ccnc2)c1",
    "output.unit": "ng·h/mL",
    "AUC(0-inf)": 551
  },
  {
    "compound": "Cc1cc(Nc2nccc(-c3ccncc3)n2)ccc1N.Cl.Cl [Compound 2, reference compound]",
    "output.unit": "ng·h/mL",
    "AUC(0-inf)": 224
  }
]

# credit: patent US5162328A
